Molecular target: E. coli RNAP (Escherichia coli, UniProt P0A8T7+P0A8V2)
Sequence (P0A8V2 whole entry): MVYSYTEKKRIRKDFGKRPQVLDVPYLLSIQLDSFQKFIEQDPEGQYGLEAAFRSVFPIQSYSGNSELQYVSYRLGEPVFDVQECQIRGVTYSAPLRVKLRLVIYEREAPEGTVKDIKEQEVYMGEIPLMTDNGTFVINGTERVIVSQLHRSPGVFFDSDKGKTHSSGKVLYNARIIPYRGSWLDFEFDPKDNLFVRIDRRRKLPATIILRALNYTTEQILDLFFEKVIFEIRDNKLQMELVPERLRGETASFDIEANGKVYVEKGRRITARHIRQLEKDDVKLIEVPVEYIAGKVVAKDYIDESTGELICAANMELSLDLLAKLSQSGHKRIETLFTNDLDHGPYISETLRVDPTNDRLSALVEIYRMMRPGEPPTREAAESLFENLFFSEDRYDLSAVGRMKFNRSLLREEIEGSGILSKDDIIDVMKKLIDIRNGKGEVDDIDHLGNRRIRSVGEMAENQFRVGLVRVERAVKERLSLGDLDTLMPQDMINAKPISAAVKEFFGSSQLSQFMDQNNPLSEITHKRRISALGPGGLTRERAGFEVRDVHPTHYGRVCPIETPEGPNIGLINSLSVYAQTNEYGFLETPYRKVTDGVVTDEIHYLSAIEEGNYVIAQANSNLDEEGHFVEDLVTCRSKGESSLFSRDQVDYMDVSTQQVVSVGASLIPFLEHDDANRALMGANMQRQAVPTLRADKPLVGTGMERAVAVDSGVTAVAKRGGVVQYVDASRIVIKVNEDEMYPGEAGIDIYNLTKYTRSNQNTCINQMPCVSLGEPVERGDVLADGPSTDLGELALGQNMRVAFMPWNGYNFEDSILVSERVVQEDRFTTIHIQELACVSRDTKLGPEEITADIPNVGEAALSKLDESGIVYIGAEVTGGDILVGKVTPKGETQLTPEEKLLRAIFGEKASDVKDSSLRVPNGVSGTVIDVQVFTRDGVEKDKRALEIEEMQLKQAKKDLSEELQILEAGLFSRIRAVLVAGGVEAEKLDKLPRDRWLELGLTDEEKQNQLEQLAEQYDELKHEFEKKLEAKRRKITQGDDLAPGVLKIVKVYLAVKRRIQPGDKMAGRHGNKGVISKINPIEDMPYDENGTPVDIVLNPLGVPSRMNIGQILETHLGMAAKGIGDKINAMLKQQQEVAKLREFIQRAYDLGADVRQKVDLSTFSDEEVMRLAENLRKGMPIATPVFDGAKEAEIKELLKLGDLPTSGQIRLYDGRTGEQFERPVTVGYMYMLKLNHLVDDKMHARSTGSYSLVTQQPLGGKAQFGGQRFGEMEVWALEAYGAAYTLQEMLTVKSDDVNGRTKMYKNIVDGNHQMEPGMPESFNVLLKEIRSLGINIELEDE
Sequence (P0A8T7 whole entry): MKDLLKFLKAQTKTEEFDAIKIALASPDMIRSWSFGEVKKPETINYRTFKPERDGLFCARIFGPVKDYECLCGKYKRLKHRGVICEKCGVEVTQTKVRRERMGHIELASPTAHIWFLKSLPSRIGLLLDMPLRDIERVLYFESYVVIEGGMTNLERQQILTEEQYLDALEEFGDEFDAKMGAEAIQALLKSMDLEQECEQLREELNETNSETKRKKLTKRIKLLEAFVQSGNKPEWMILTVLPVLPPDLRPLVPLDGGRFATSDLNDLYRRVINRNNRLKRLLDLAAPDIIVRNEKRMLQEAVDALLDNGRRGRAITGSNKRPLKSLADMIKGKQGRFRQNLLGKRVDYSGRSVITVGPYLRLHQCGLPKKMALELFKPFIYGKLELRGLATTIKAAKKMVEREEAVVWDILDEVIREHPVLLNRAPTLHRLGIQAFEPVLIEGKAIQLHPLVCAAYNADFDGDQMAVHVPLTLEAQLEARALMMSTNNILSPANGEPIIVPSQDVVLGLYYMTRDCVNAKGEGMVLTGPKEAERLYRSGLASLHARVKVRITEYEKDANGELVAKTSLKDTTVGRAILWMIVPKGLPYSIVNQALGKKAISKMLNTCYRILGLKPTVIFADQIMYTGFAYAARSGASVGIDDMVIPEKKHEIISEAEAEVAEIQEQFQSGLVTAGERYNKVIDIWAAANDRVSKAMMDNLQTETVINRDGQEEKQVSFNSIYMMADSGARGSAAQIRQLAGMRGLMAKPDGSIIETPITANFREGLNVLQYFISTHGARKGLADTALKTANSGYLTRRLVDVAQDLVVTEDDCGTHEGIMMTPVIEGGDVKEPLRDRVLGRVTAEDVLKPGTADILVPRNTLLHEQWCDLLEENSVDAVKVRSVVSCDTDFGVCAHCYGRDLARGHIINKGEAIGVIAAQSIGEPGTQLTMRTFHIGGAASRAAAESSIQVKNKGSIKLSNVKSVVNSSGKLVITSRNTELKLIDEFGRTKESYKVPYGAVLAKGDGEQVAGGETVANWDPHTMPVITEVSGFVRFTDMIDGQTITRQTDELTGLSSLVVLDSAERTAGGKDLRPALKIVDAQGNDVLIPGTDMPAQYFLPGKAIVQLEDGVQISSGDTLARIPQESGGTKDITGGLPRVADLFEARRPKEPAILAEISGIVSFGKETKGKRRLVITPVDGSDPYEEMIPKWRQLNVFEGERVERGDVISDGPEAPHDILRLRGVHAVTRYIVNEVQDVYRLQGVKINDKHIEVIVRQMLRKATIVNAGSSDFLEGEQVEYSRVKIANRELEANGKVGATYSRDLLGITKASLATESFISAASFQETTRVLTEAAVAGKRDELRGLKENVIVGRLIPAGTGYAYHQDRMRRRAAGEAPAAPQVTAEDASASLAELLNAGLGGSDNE
Sequence (P0A7Z4 whole entry partner): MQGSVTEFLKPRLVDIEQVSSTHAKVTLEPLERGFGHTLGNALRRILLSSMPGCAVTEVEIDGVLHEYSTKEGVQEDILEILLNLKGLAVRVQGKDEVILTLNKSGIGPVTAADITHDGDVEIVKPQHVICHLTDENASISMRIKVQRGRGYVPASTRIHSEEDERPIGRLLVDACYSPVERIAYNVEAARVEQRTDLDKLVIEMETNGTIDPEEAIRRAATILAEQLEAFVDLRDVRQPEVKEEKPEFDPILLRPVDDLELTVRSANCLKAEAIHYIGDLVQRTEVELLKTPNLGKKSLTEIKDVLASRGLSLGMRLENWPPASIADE
Test: High throughput in vitro transcription (RNAP) assay
Conditions: 60 minutes incubation
pIC50: −log10 of the molar value.
observable: pIC50

[
  {
    "compound": "CS(=O)(=O)Nc1ccc(NN=C(C#N)C(=O)c2ccc(Cl)cc2)cc1 [Example 7]",
    "pIC50": "5.00 to 6.30"
  },
  {
    "compound": "C[S+]([O-])c1ccc(NN=C(C#N)C(=O)c2ccc(Cl)cc2)cc1 (stereo not drawn) [Example 5]",
    "pIC50": "5.00 to 6.30"
  },
  {
    "compound": "N#CC(=NNc1ccc([N+](=O)[O-])cc1)C(=O)c1ccc(-c2ccccc2)cc1 [Example 6]",
    "pIC50": "5.00 to 6.30"
  },
  {
    "compound": "N#CC(=NNc1ccc(C(=O)O)cc1)C(=O)c1ccc(Cl)cc1 [Example 9]",
    "pIC50": "< 5.00"
  },
  {
    "compound": "N#CC(=NNc1ccc(OC(F)(F)F)cc1)C(=O)c1ccc(Cl)cc1 [Example 18]",
    "pIC50": "5.00 to 6.30"
  }
]

Prompt: Give the measured pIC50 of CS(=O)(=O)c1ccc(NN=C(C#N)C(=O)c2ccc(-c3ccccc3)cc2)cc1 [Example 11] .
Completion: < 5.00

Prompt: Give the measured pIC50 of N#CC(=NNc1ccc(F)cc1)C(=O)c1ccc(OC(F)(F)F)cc1 [Example 21] .
Completion: 5.00 to 6.30

Prompt: Give the measured pIC50 of CSc1ccc(NN=C(C#N)C(=O)c2ccc(Cl)cc2)cc1 [Example 4] .
Completion: 5.00 to 6.30

Prompt: Give the measured pIC50 of N#CC(=NNc1ccc([N+](=O)[O-])cc1)C(=O)c1ccc(Cl)nc1 [Example 8] .
Completion: 5.00 to 6.30

Prompt: Give the measured pIC50 of CC(=O)N(N=C(C#N)C(=O)c1ccc(Cl)cc1)c1ccc([N+](=O)[O-])cc1 [Example 3] .
Completion: 5.00 to 6.30

Prompt: Give the measured pIC50 of CS(=O)(=O)c1ccc(NN=C(C#N)C(=O)c2ccc(Cl)cc2)cc1 [Example 1] .
Completion: > 6.30

Prompt: Give the measured pIC50 of Cc1c(C(=O)C(C#N)=NNc2ccc([N+](=O)[O-])cc2)sc2ccc(Cl)cc12 [Example 15] .
Completion: > 6.30

Prompt: Give the measured pIC50 of N#CC(=NNc1ccc([N+](=O)[O-])cc1)C(=O)c1ccccc1 [Example 23] .
Completion: < 5.00

Prompt: Give the measured pIC50 of N#CC(=NNc1ccc(Cl)cc1)C(=O)c1ccc(-c2ccccc2)cc1 [Example 13] .
Completion: < 5.00

Prompt: Give the measured pIC50 of N#CC(=NNc1ccc([N+](=O)[O-])cc1)C(=O)c1cccc(Cl)c1 [Example 22] .
Completion: < 5.00

Prompt: Give the measured pIC50 of CC(=O)N(N=C(C#N)C(=O)c1ccc(Cl)cc1)c1ccc(Cl)cc1 [Example 14] .
Completion: < 5.00

Prompt: Give the measured pIC50 of N#CC(=NNc1ccc([N+](=O)[O-])cc1)C(=O)c1ccc(Cl)cc1 [Example 17] .
Completion: > 6.30

Prompt: Give the measured pIC50 of CS(=O)(=O)C(=NNc1ccc([N+](=O)[O-])cc1)C(=O)c1ccc(Cl)cc1 [Example 2] .
Completion: 5.00 to 6.30
